- Measurement Protocol: NCI Yeast Anticancer Drug Screen. Data for the bub3 strain (AID 167)
- Details: S. cerevisiae bub3 mutant strain, at 100.0 µM, active compounds read high
The panel holds about 79,000 compounds, 15% with a hit somewhere; the sample as a whole holds those more often.
Reported growth inhibition values follow for various molecules
Lab book: enter the figure in %, no units written.

CC[C@@]1(O)C(=O)OCc2c1cc1n(c2=O)Cc2cc3c(NC(=O)CN)cccc3nc2-1 :: -6
c1ccc(N=c2nc(N3CCOCC3)ss2)cc1 :: 99
C[C@]12CCC(=O)C=C1CC[C@@H]1C2CC[C@@]2(C)C1CC[C@@H]2OC(=O)C12OC1CCC2=O (stereo partly specified) :: 96
O=C(NNC(=O)OCC(Cl)(Cl)Cl)OCC(Cl)(Cl)Cl :: 20
O=c1oc2ccccc2c(O)c1C(c1ccc2c(c1)Cc1ccccc1-2)c1c(O)c2ccccc2oc1=O :: 96

Form: molecule = CCNCC(=O)O[C@]1(CC)C(=O)OCc2c1cc1n(c2=O)Cc2cc3ccccc3nc2-1 ; growth inhibition = -6

In plain terms, Cc1ccc2c(c1)C1(C)c3cc(C)ccc3SP1S2 (stereo unspecified) has a documented growth inhibition of 42

Please fill in: growth inhibition reported for Br[Se]c1ccccn1 = 98

Reported growth inhibition of O=C(COc1ccc(Cl)cc1Cl)NO : 74

---

Overview of reported growth inhibition across a group of molecules:
- Measurement Protocol: NCI Yeast Anticancer Drug Screen. Data for the rad50 strain (AID 155);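 also: 0% = growth of vehicle-only cultures of the same strain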
- Details: S. cerevisiae rad50 strain growth inhibition; at 5.0 µM (retest, dose inferred, filed as 0.5); active compounds read high
This is part of a sample that, as a whole, favours compounds with a hit. Of some 79,000 tested, about 15% had one in any assay.
Answer format: numeric, % implied, no suffix.

# example entries with known answers
[Br][Ni][Br].c1ccc(CN2CCN(Cc3ccccc3)CCN(Cc3ccccc3)CCN(Cc3ccccc3)CC2)cc1 :: 0
CCNC(=O)OCC1C2=C(C(=O)C(C)=C(N)C2=O)N2CC3C(N3C)C12OC (centres undefined) :: 34
CC(C)(C)OC(=O)NC(CSC(c1ccccc1)(c1ccccc1)c1cccs1)C(=O)O (centres undefined) :: 7
CC(=O)[O-].O=C([CH-]C(=O)c1ccccc1)c1ccccc1.O=C([CH-]C(=O)c1ccccc1)c1ccccc1.[Sm+3] :: 55
CC(C)(C)c1cc([N+](=O)[O-])cc([N+](=O)[O-])c1O :: 46

Field growth inhibition (entry [Br][Hg][CH2]COC[CH2][Hg][Br] ) reads 95

---

Entries annotated with measured growth inhibition
- Measurement Protocol: NCI Yeast Anticancer Drug Screen. Data for the cln2 rad14 strain (AID 165);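 also: 0% = growth equal to vehicle treated cultures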
- Details: S. cerevisiae cln2 rad14 strain, at 50.0 µM (retest, dose inferred, filed as 5.0), active compounds read high
This is part of a sample that, as a whole, favours compounds with a hit. Of some 79,000 tested, about 15% had one in any assay.
// units = %; emit number, no label

In the examples that follow, each entry is paired with its recorded growth inhibition.
CCC(C)N1CN(c2ccccc2)C2(CCN(CC3COc4ccccc4O3)CC2)C1=O (centres undefined) :: 13
C[CH2][Sn]([CH2]C)([S]CCS(=O)(=O)O)[S]CCS(=O)(=O)O (tested in a mixture with another compound) :: 67
Cc1cn(CC2C=CC(CS[As](C)C)O2)c(=O)[nH]c1=O (centres undefined) :: 95
CCOP(=O)(O)C(Nc1ccc(N=Nc2ccccc2)cc1)c1cccc(C(Nc2ccc(N=Nc3ccccc3)cc2)P(=O)(O)OCC)c1 (centres undefined) :: 27
Cc1cc[n+](C2=C(Nc3cc(C)cc(C)c3)C(=O)c3ccccc3C2=O)cc1 :: 1
CCC(C)N1CN(c2ccccc2)C2(CCN(CCCC3(c4ccc(F)cc4)OCCO3)CC2)C1=O (centres undefined) :: 92
CC(C)C(=O)CP(=O)(O)O :: -13
CC[C@@]1(O)C(=O)OCc2c1cc1n(c2=O)Cc2cc3cc4c(cc3nc2-1)OCO4 :: 47

Turning now to a further record.
For reference, reported growth inhibition for CCC1(O)C(=O)OCc2c1cc(C)[nH]c2=O (centres undefined) stands at -64

---

- Measurement Protocol: NCI Yeast Anticancer Drug Screen. Data for the mec2-1 strain (AID 157)
- Details: S. cerevisiae mec2-1 strain, at 50.0 µM
Compounds without any hit were thinned out: in the full panel of roughly 79,000, 15% have a hit. Calls of active or inactive are those of the source. Rule as the data show it: active = growth inhibition above about 70%; inactive = the rest.
Mark one answer only. Choices: active, inactive

Worked examples, 10 compounds total:
O=P(CP(=O)(c1ccccc1)c1ccccc1)(c1ccccc1)c1ccccc1.[CH3][Sn]([CH3])([Cl])[Cl] :: active
ClCCN(CCCl)c1ccc(C2N(Cc3ccc(N(CCCl)CCCl)cc3Cl)CCCN2Cc2ccc(N(CCCl)CCCl)cc2Cl)cc1 :: active
CCC[CH2][Sn]1([CH2]CCC)[O]C(=O)c2cccc(C)c2[O]1 :: active
NNc1ccccc1Cl :: active
C=CCC[CH2][Sn]([c]1ccccc1)([c]1ccccc1)[c]1ccccc1 :: active
S=P(Nc1ccccc1)(Nc1ccccc1)Oc1ccccc1 :: active
O=C(O)C1(c2ccccc2)OC1c1ccccc1 (stereo not drawn) :: active
COC(=O)C(Cl)(Br)CCl (stereo not drawn) :: active
CCCCCCCCCCCCCCCCCC(=O)[O][Hg][c]1ccccc1 :: active
C[C@@H]1CCC2[C@@H](C)[C@H](O[C@H]3O[C@@H]4O[C@@]5(C)CCC6[C@H](C)CCC([C@H]3C)[C@]64OO5)O[C@@H]3O[C@@]4(C)CCC1[C@@]23OO4 (stereo partly drawn) :: active

Next item in the queue.
IN: Returns: the outcome recorded for Br[C](Br)(Br)[Hg][c]1ccccc1 in this assay.
OUT: active

---

- Measurement Protocol: NCI Yeast Anticancer Drug Screen. Data for the wt1 strain (AID 149);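 also: 0% = growth of vehicle-treated wt1 cultures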
- Details: S. cerevisiae wt1 strain (SPY 50644) growth inhibition; at 100.0 µM; active compounds read high
The panel holds about 79,000 compounds, 15% with a hit somewhere; the sample as a whole holds those more often.
Quick reference for growth inhibition among some compounds
Report as a plain number; the unit % is understood.

Here are 6 compounds together with their reported answers.
CNC(=O)ON(C(C)=O)C(=O)NC :: -60
Cc1ccc2c(c1N)C(=O)c1ccccc1C2=O :: 5
C/C(=N\NC(N)=O)C(CN1CCOCC1)C(c1ccccc1)c1c(O)c2ccccc2oc1=O (stereo not given) :: -1
O=C1C2CC(Cl)C(SSC3CC4C(=O)N(SC(Cl)(Cl)C(Cl)Cl)C(=O)C4CC3Cl)CC2C(=O)N1SC(Cl)(Cl)C(Cl)Cl (stereo not given) :: 93
CC[C@@]1(O)C[C@H](OC2CC(N(C)C)C(O)C(C)O2)c2c(O)c3c(c(O)c2[C@H]1OC1CC(N(C)C)C(O)C(C)O1)C(=O)c1cccc(O)c1C3=O (stereo not given in full) :: 42
c1cc2c(cc1C1OC[C@H]3[C@@H](c4ccc5c(c4)OCO5)OC[C@@H]13)OCO2 (stereo not given in full) :: -8

Record summary for COC1C(O)C(C)OC(OC2C(Oc3cccc4c(O)c5c(=O)oc6ccc(C)c7c(=O)oc(c34)c5c67)OC(C)C(O)C2O)C1O (stereo not given) : reported growth inhibition = 12

Recorded result, OC1(c2ccccc2)CC2CCC(C1)N2CCCC(O)(c1ccccc1)c1ccccc1 (stereo not given) , growth inhibition: 24

// growth inhibition lookup, compound = Cc1ccc2c(c1)C1(C)c3cc(C)ccc3SP1S2 (stereo not given) , result: 36

Recorded result, O=C(O)C1C2C=CC(C2)C1c1ccccc1 (stereo not given) , growth inhibition: 1

---

- Measurement Protocol: NCI Yeast Anticancer Drug Screen. Data for the cln2 rad14 strain (AID 165);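 also: 0% = growth equal to vehicle treated cultures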
- Details: S. cerevisiae cln2 rad14 strain, at 50.0 µM
The panel holds about 79,000 compounds, 15% with a hit somewhere; the sample as a whole holds those more often. Active and inactive are the calls of the source. Rule as the data show it: active = growth inhibition above about 70%; inactive = the rest.
Please answer using one outcome listed in active, inactive

CC1=C(CO)C2=C(C)C3(CC3)[C@@](C)(O)C(=O)C2=C1 :: inactive
CC(Cc1ccccc1)N(C)Cc1nc(C2CCC([N+](=O)[O-])O2)no1 (stereo not given) :: active
O=C(COc1ccc(Cl)c(Cl)c1)N(Cc1ccccc1)Cc1ccc[n+](Cc2ccc(S(=O)(=O)F)cc2)c1 :: inactive
CCOP(=S)(OCC)OC(c1ccc(Cl)cc1)c1ccc(Cl)cc1 :: inactive

Moving on to the next compound.
IN: For CCC1(CC)C(=O)[N-]C(=O)[N-]C1=O.[Au+].[Au+].c1ccc([PH+](c2ccccc2)c2ccccc2)cc1.c1ccc([PH+](c2ccccc2)c2ccccc2)cc1 , what call appears in the results of this test?
OUT: inactive

---

- Measurement Protocol: NCI Yeast Anticancer Drug Screen. Data for the wt2 strain (AID 169);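 also: 0% = growth of vehicle-treated yeast cultures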
- Details: S. cerevisiae wt2 strain growth inhibition; at 3.7 µM; active compounds read high
Compounds without any hit were thinned out: in the full panel of roughly 79,000, 15% have a hit. Calls of active or inactive are those of the source. No stated cut-off is given here; in the data, active means growth inhibition above about 70%; inactive means the rest.
Readout Kind: growth inhibition

Solved cases below.
CC(Cc1ccccc1)N(C)Cc1nc(C2CCC([N+](=O)[O-])O2)no1 (stereo not given) :: 3% (inactive)
CCCCCNC(=O)c1c(O)[nH]c(=S)[nH]c1=O :: -1% (inactive)
O=C(O)CCCc1cc(I)c(N(CCCl)CCCl)c(I)c1 :: -14% (inactive)

Documented growth inhibition of CCCCCCCCCC[Se]C#N : 7% (inactive)

What the record says about O=C1OC2C(O1)C1(Cl)C(Cl)=C(Cl)C2(Cl)C1(Cl)Cl (stereo not given) : growth inhibition is -5% (inactive)
